# target.of.assay: crosslinked smooth muscle actomyosin (chicken gizzard smooth muscle myosin subfragment-1 crosslinked to cardiac or skeletal actin) (Gallus gallus)
measure.name: IC50 (µM)

> print(dat)
                         structure.notation  measure.name  result.units  test.value
1  CCc1ccc(NC(=O)OCC2(C(=O)NCc3ccc(F)cc3)CCN(C(=O)CNC(=O)OC(C)(C)C)CC2)cc1          IC50            µM        10.1

P = COC(=O)c1ccc(NC(=O)OCC2(C(=O)NCc3ccccc3Cl)CCN(C(=O)CN)CC2)cc1
Q = CCc1ccc(NC(=O)OCC2(C(=O)NCc3ccccc3Cl)CCN(C(=O)C3CCNCC3)CC2)cc1
Problem: Lab log: flag the item ( P or Q ) with the smaller IC50 figure. Answer = label.
Result: Q

* * *

# target.of.assay: crosslinked smooth muscle actomyosin (chicken gizzard smooth muscle myosin subfragment-1 crosslinked to cardiac or skeletal actin) (Gallus gallus)
pIC50: −log10 of the molar value.
measure.name: pIC50

Please review the entries below; each comes with its answer.
> print(dat)
                                   compound  test.value
1  O=C(Nc1ccc(C(F)(F)F)cc1)OCC1(C(=O)NCc2ccccc2Cl)CCN(C(=O)CO)CC1        6.34
2  COC(=O)c1ccccc1CNC(=O)C1(COC(=O)Nc2ccc(C(F)(F)F)cc2)CCN(C(=O)CN)CC1        5.64
3  O=C(Nc1cc(Cl)cc(Cl)c1)OCC1(C(=O)NCc2ccccc2Cl)CCOCC1        4.74
4  CCc1ccc(NC(=O)OC[C@H](C)N(C)C(=O)NCc2ccccc2Cl)cc1        6.83
5  CCc1ccc(NC(=O)OCC2(C(=O)NCc3ccccc3Cl)CCN(C(=O)C3CC3)CC2)cc1        6.19
6  N#Cc1ccccc1NC(=O)OCC1(C(=O)NCc2ccccc2Cl)CCOCC1        4.77

1 = CCc1ccc(NC(=O)OCC2(C(=O)NCc3ccccc3Cl)CCN(C(=O)[C@@H](C)NC(=O)OC(C)(C)C)CC2)cc1
2 = CCc1ccc(NC(=O)OCC(C)(CCNC(=O)CN)C(=O)NCc2ccccc2Cl)cc1 (stereo not drawn)
Problem: Lab log: flag the item ( 1 or 2 ) with the smaller pIC50 figure. Answer = label.
Result: 1
(1: 4.92, 2: 6.55)

* * *

# target.of.assay: crosslinked smooth muscle actomyosin (chicken gizzard smooth muscle myosin subfragment-1 crosslinked to cardiac or skeletal actin) (Gallus gallus, UniProt P10587)
# Construct: chicken gizzard smooth muscle myosin subfragment-1; from tissue; host or cells: chicken gizzard
# experimental.protocol: Lead optimization pyruvate kinase/horseradish peroxidase/pyruvate oxidase-coupled ATPase assay (compound dose response)
# Format: biochemical
# run.conditions: read-out: IC50 Arithmetic Mean
pIC50: −log10 of the molar value.
measure.name: pIC50

> print(dat)
                                   molecule  test.value
1  CCc1ccc(NC(=O)OCC2(C(=O)NCc3ccccc3Cl)CC(O)C(O)C2)cc1 (stereo not shown)        5.26
2  CCc1ccc(NC(=O)OCC(C)(NC(=O)CN)C(=O)NCc2ccccc2Cl)cc1 (stereo not shown)        5.40
3              CCc1ccc(NC(=O)OCCNC(C)=O)cc1        4.76
4  CCc1ccc(NC(=O)OCC2(C(=O)NCc3ccccc3Cl)CCN(CCO)CC2)cc1        5.39
5  CC(=O)c1ccc(NC(=O)OCC2(C(=O)NCc3ccccc3Cl)CCN(C(=O)CN)CC2)cc1        5.93
6  CCc1ccc(NC(=O)OCC2(C(=O)NCc3ccccc3Cl)CCN(C(=O)CCOC)CC2)cc1        6.22
7  CCc1ccc(NC(=O)OCC2(C(=O)NCc3cccc(Cl)c3Cl)CCN(C(=O)CN)CC2)cc1        7.06
8  CCc1ccc(NC(=O)CCC(C)(C)C(=O)NCc2ccccc2Cl)cc1        4.73

A = CCc1ccc(NC(=O)OCC2(C(=O)NCc3ccccc3C#N)CCN(C(=O)CN)CC2)cc1
B = CCc1ccc(NC(=O)N(C)CC2(C(=O)NCc3ccccc3Cl)CCN(C(=O)CO)CC2)cc1
C = CC(C)c1ccc(NC(=O)OCC2(C(=O)NCc3ccccc3Cl)CCOCC2)cc1
Problem: List these items ordered by pIC50, big to small. // format: requested-order list of labels
Result: C, A, B

A = CCc1ccc(NC(=O)OCC2(C(=O)NCc3ccccc3Cl)CCNCC2)cc1
B = CCc1ccc(NC(=O)OCCC(NC(=O)CN)C(=O)NCc2ccccc2Cl)cc1 (stereo not shown)
Problem: Lab log: flag the item ( A or B ) with the smaller pIC50 figure. Answer = label.
Result: B
